System: HCV type 1b replicon in Huh-7 luc/neo (Huh-Luc) cells
Assay: HCV replicon assay (Huh-Luc cells, luciferase read-out)
Type: cell-based
Settings: inhibition of HCV replication, three days incubation, luciferase activity
Description: The in vitro antiviral activity against HCV of the compounds of formula I can be tested in a cellular HCV replicon system based on Lohmann et al. (1999) Science 285:110-113, with the further modifications described by Krieger et al. (2001) Journal of Virology 75: 4614-4624 (incorporated herein by reference), which is further exemplified in the examples section. […]
Would you mind telling me the reported pEC50 of each entry?
Remember the convention: pEC50 equals -log10 of concentration in molar.

The measured pEC50 associated with C[C@H](NP(=O)(OC[C@H]1O[C@@H](n2ccc(=O)[nH]c2=O)[C@](C)(N)[C@@H]1O)Oc1ccccc1)C(=O)OC1CCCCCC1 (single isomer, unassigned) [Example 7B] reads 6.72

Notebook: CC[C@@H](C)OC(=O)[C@H](C)NP(=O)(OC[C@H]1O[C@@H](n2ccc(=O)[nH]c2=O)[C@](C)(N)[C@@H]1O)Oc1ccccc1 (single isomer, unassigned) [Example 21B] , pEC50 read as 6.13

For record C[C@H](NP(=O)(OC[C@H]1O[C@@H](n2ccc(=O)[nH]c2=O)[C@](C)(N)[C@@H]1O)Oc1ccccc1)C(=O)OCC1CCCC1 (single isomer, unassigned) [Example 27B] the listed pEC50 is 6.42

---

tested on: HCV type 1b replicon in Huh-7 luc/neo (Huh-Luc) cells; assay: HCV replicon assay (Huh-Luc cells, luciferase read-out); format: cell-based; details: inhibition of HCV replication, three days incubation, luciferase activity
reported.property: pEC50
Please note pEC50 is a logarithmic value: minus log10 of concentration in mol/L. Answer with that number alone.

The recorded pEC50 for CC(C)OC(=O)[C@H](C)NP(=O)(OC[C@H]1O[C@@H](n2ccc(=O)[nH]c2=O)[C@](C)(N)[C@@H]1O)Oc1ccccc1 (single isomer, unassigned) [Example 9B] is 6.04

Looking up C[C@H](NP(=O)(OC[C@H]1O[C@@H](n2ccc(=O)[nH]c2=O)[C@](C)(N)[C@@H]1O)Oc1ccccc1)C(=O)OC1CCCCCCC1 (single isomer, unassigned) [Example 10A] , I found its pEC50 recorded as 4.82

Reported pEC50 of CCOC(=O)[C@H](C)NP(=O)(OC[C@H]1O[C@@H](n2ccc(=O)[nH]c2=O)[C@](C)(N)[C@@H]1O)Oc1ccccc1 (single isomer, unassigned) [Example 11A] : 5.19

response.value for C[C@H](NP(=O)(OC[C@H]1O[C@@H](n2ccc(=O)[nH]c2=O)[C@](C)(N)[C@@H]1O)Oc1ccccc1)C(=O)OCC1CC1 (single isomer, unassigned) [Example 26A] (field: pEC50) = 5.77

For reference, reported pEC50 for CC(C)OC(=O)[C@H](C)NP(=O)(OC[C@H]1O[C@@H](n2ccc(=O)[nH]c2=O)[C@](C)(N)[C@@H]1O)Oc1ccccc1 (some centres unmarked) [Example 2] stands at 5.70

---

Exercise: state measured log10 EC50 for each of the compounds provided.
test system: HCV type 1b replicon in Huh-7 luc/neo (Huh-Luc) cells; experiment: HCV replicon assay (Huh-Luc cells, luciferase read-out); format: cell-based; conditions: inhibition of HCV replication, three days incubation, luciferase activity
// stored as log10 of EC50 expressed in nM

// log10 EC50 lookup, compound = CCCCCOC(=O)[C@H](C)NP(=O)(OC[C@H]1O[C@@H](n2ccc(=O)[nH]c2=O)[C@](C)(N)[C@@H]1O)Oc1ccccc1 (single isomer, unassigned) [Example 18A] , result: 3.26

Looking up CC[C@@H](C)OC(=O)[C@H](C)NP(=O)(OC[C@H]1O[C@@H](n2ccc(=O)[nH]c2=O)[C@](C)(N)[C@@H]1O)Oc1ccccc1 (single isomer, unassigned) [Example 22B] , I see its log10 EC50 listed as 2.82

// recorded log10 EC50 for CCCCOC(=O)[C@H](C)NP(=O)(OC[C@H]1O[C@@H](n2ccc(=O)[nH]c2=O)[C@](C)(N)[C@@H]1O)Oc1ccccc1 (single isomer, unassigned) [Example 19A] : 3.15

The compound identified as CCCC(CCC)COC(=O)[C@H](C)NP(=O)(OC[C@H]1O[C@@H](n2ccc(=O)[nH]c2=O)[C@](C)(N)[C@@H]1O)Oc1ccccc1 (single isomer, unassigned) [Example 14B] registered its log10 EC50 at 2.62

Documented log10 EC50 of C[C@H](NP(=O)(OC[C@H]1O[C@@H](n2ccc(=O)[nH]c2=O)[C@](C)(N)[C@@H]1O)Oc1ccccc1)C(=O)OC1CCCCC1 (single isomer, unassigned) [Example 12B] : 2.11

Kindly note the recorded log10 EC50 for CCCCCOC(=O)[C@H](C)NP(=O)(OC[C@H]1O[C@@H](n2ccc(=O)[nH]c2=O)[C@](C)(N)[C@@H]1O)Oc1ccccc1 (single isomer, unassigned) [Example 18B] , which is 2.51

The reported log10 EC50 of the compound CC(C)OC(=O)[C@H](C)NP(=O)(OC[C@H]1O[C@@H](n2ccc(=O)[nH]c2=O)[C@](C)(N)[C@@H]1O)Oc1ccccc1 (single isomer, unassigned) [Example 9A] was 4.11

log10 EC50 for C[C@H](NP(=O)(OC[C@H]1O[C@@H](n2ccc(=O)[nH]c2=O)[C@](C)(N)[C@@H]1O)Oc1ccccc1)C(=O)OCc1ccccc1 (single isomer, unassigned) [Example 15B] is 2.82

Memo: C[C@H](NP(=O)(OC[C@H]1O[C@@H](n2ccc(=O)[nH]c2=O)[C@](C)(N)[C@@H]1O)Oc1ccccc1)C(=O)OCC1CC1 (single isomer, unassigned) [Example 26B] , reported log10 EC50: 2.88

Sample CCCCOC(=O)[C@H](C)NP(=O)(OC[C@H]1O[C@@H](n2ccc(=O)[nH]c2=O)[C@](C)(N)[C@@H]1O)Oc1ccccc1 (single isomer, unassigned) [Example 19B] ; log10 EC50 observed: 2.46

Entry CCOC(=O)[C@H](C)NP(=O)(OC[C@H]1O[C@@H](n2ccc(=O)[nH]c2=O)[C@](C)(N)[C@@H]1O)Oc1ccccc1 (single isomer, unassigned) [Example 11B] , log10 EC50 reported as 2.99

log10 EC50 reading for CCC[C@H](C)OC(=O)[C@@H](C)NP(=O)(OC[C@H]1O[C@@H](n2ccc(=O)[nH]c2=O)[C@](C)(N)[C@@H]1O)Oc1ccccc1 (single isomer, unassigned) [Example 25A] : 3.67

Reported log10 EC50 for C[C@H](NP(=O)(OC[C@H]1O[C@@H](n2ccc(=O)[nH]c2=O)[C@](C)(N)[C@@H]1O)Oc1ccccc1)C(=O)OC1CCCCCC1 (single isomer, unassigned) [Example 7A] was 3.48

Just so you know, measured log10 EC50 for C[C@H](NP(=O)(OC[C@H]1O[C@@H](n2ccc(=O)[nH]c2=O)[C@](C)(N)[C@@H]1O)Oc1ccccc1)C(=O)OC1CCCCC1 (single isomer, unassigned) [Example 12A] came out at 2.58

---

target: HCV NS5B-21 (Hepatitis C virus genotype 1b, UniProt Q9WMX2); construct: HCV NS5B-21 (21-aminoacid C-terminally truncated version); purchased Replizyme; experiment: HCV NS5B-21 enzyme assay (SPA, 3H-ATP incorporation); format: biochemical; details: HCV NS5B-21 SPA enzyme assay, triphosphate tested
reported.property: IC50 (µM)
Please respond with the number in µM and leave the unit unwritten.

Field IC50 (entry C[C@@]1(N)[C@H](O)[C@@H](COP(=O)(O)OP(=O)(O)OP(=O)(O)O)O[C@H]1n1ccc(=O)[nH]c1=O [Example 3, triphosphate] ) reads 13

---

Give EC50 for every item shown.
test system: HCV type 1b replicon in Huh-7 luc/neo (Huh-Luc) cells; assay: HCV replicon assay (Huh-Luc cells, luciferase read-out); type: cell-based; details: inhibition of HCV replication, three days incubation, luciferase activity
Entry rule: numbers only, all in nM.

Entry CC(C)COC(=O)[C@H](C)NP(=O)(OC[C@H]1O[C@@H](n2ccc(=O)[nH]c2=O)[C@](C)(N)[C@@H]1O)Oc1ccccc1 (single isomer, unassigned) [Example 17A] , EC50 reported as 2600

Form: compound = C[C@H](NP(=O)(OC[C@H]1O[C@@H](n2ccc(=O)[nH]c2=O)[C@](C)(N)[C@@H]1O)Oc1ccccc1)C(=O)OC1CCC1 (single isomer, unassigned) [Example 8A] ; EC50 = 1900

EC50 measured on C[C@H](NP(=O)(OC[C@H]1O[C@@H](n2ccc(=O)[nH]c2=O)[C@](C)(N)[C@@H]1O)Oc1ccccc1)C(=O)OC1CCC1 (single isomer, unassigned) [Example 8B] = 800

Just so you know, measured EC50 for CC[C@@H](C)OC(=O)[C@H](C)NP(=O)(OC[C@H]1O[C@@H](n2ccc(=O)[nH]c2=O)[C@](C)(N)[C@@H]1O)Oc1ccccc1 (single isomer, unassigned) [Example 21A] came out at 5100

Quick note, EC50 for CCC(CC)OC(=O)[C@H](C)NP(=O)(OC[C@H]1O[C@@H](n2ccc(=O)[nH]c2=O)[C@](C)(N)[C@@H]1O)Oc1ccccc1 (single isomer, unassigned) [Example 28A] landed at 34000
